Taken from patent US7265103B2.

Quick reference for pIC50 among some molecules
Target: h5-HT transporter (Homo sapiens, UniProt P31645)
Sequence (P31645 whole entry): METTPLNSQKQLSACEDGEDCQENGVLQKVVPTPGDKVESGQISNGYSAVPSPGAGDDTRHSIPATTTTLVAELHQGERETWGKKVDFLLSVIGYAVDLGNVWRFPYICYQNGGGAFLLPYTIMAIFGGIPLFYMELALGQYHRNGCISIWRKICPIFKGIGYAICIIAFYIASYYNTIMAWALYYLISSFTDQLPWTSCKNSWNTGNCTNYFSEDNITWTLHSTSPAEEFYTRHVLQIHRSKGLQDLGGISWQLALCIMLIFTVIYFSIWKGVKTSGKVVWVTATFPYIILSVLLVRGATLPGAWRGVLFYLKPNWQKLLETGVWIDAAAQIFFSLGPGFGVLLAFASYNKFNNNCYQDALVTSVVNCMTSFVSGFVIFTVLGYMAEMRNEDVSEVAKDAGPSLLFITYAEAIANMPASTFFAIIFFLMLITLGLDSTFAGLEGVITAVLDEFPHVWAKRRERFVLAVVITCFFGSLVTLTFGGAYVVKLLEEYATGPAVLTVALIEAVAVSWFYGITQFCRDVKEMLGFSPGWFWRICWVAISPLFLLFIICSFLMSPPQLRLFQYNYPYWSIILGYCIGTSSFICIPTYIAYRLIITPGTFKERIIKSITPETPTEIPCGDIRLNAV
pIC50: −log10 of the molar value.
measured.endpoint: pIC50

molecule="CC(=Cc1ccc(F)cc1)CN1CCN(CC2ON=C3c4ccc(N5CCOCC5)cc4OCC32)CC1 (stereo not shown) [Compound 84]" measured_endpoint=pIC50 reported_result=7.60
molecule="COc1cc2c(cc1N1CCOCC1)OCC1C2=NOC1CN1CCN(CC(C)=Cc2ccccc2)CC1 (stereo not shown) [Compound 82]" measured_endpoint=pIC50 reported_result=7.40
molecule="CC(=Cc1ccc(F)cc1)CN1CCN(CC2ON=C3c4ccc(NC(C)CO)cc4OCC32)CC1 (stereo not shown) [Compound 134]" measured_endpoint=pIC50 reported_result=6.90
molecule="CCNC(=O)N1CCOc2cc3c(cc21)OCC1C3=NOC1CN1CCN(C/C(C)=C/c2ccccc2)CC1 (stereo not shown) [Compound 16]" measured_endpoint=pIC50 reported_result=8.10

----------
Target: hα2A receptor (Homo sapiens, UniProt P08913)
Construct: expressed in transfected cells; host or cells: CHO cells
Sequence (P08913 whole entry): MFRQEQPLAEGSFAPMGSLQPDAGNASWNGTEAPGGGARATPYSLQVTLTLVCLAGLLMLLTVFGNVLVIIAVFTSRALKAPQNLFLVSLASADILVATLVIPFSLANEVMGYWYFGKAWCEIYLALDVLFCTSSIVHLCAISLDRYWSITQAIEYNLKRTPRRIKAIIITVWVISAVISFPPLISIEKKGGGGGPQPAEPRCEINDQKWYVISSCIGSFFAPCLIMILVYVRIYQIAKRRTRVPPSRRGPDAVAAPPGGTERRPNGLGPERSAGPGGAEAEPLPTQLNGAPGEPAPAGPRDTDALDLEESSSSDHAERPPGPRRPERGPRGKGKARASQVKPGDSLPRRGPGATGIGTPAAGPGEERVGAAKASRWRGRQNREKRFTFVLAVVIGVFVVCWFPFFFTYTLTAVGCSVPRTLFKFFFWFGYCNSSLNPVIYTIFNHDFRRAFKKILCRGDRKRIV
Experiment: Radioligand binding experiment for α2A-adrenergic receptor ([3H]-raulwolscine)
Conditions: CHO cell membranes with human α2A receptor, [3H]raulwolscine 1 nM; read-out: pIC50 α2A (converted)
Quick reference for IC50 among some molecules
measured.endpoint: IC50

molecule="CC(=Cc1ccc(F)cc1)CN1CCN(CC2ON=C3c4ccc(N(C)CCO)cc4OCC32)CC1 (centres unmarked)" measured_endpoint=IC50 reported_result="79.4 nM"
molecule="CC(=O)Nc1ccc2c(c1)OCC1C2=NOC1CN1CCN(C/C(C)=C/c2ccccc2)CC1 (centres unmarked)" measured_endpoint=IC50 reported_result="3.16 nM"
molecule="C/C(=C\\c1ccccc1)CN1CCN(CC2ON=C3c4ccc(NC(=O)[C@H]5CCCN5)cc4OCC32)CC1 (some centres unmarked)" measured_endpoint=IC50 reported_result="3.16 nM"
molecule="CC(=Cc1ccc(F)cc1)CN1CCN(CC2ON=C3c4ccc(N(C)CCNCC5CC5)cc4OCC32)CC1 (centres unmarked)" measured_endpoint=IC50 reported_result="12.6 nM"
molecule="COc1cc2c(cc1NC(C)=O)OCC1C2=NOC1CN1CCN(CC(C)=Cc2cccc(F)c2)CC1 (centres unmarked)" measured_endpoint=IC50 reported_result="1.26 nM"
molecule="CC(=Cc1ccc(F)cc1)CN1CCN(CC2ON=C3c4ccc(N5CCCCCC5)cc4OCC32)CC1 (centres unmarked)" measured_endpoint=IC50 reported_result="200 nM"
molecule="CC(=Cc1ccccc1)CN1CCN(CC2ON=C3c4ccc(Nc5ccc(F)cc5)cc4OCC32)CC1 (centres unmarked)" measured_endpoint=IC50 reported_result="31.6 nM"
molecule="C=CC(=O)Nc1ccc2c(c1)OCC1C2=NOC1CN1CCN(CC(C)=Cc2ccccc2)CC1 (centres unmarked)" measured_endpoint=IC50 reported_result="1.58 nM"

----------
Target: hα2C receptor (Homo sapiens, UniProt P18825)
Construct: expressed in transfected cells; host or cells: CHO cells
Sequence (P18825 whole entry): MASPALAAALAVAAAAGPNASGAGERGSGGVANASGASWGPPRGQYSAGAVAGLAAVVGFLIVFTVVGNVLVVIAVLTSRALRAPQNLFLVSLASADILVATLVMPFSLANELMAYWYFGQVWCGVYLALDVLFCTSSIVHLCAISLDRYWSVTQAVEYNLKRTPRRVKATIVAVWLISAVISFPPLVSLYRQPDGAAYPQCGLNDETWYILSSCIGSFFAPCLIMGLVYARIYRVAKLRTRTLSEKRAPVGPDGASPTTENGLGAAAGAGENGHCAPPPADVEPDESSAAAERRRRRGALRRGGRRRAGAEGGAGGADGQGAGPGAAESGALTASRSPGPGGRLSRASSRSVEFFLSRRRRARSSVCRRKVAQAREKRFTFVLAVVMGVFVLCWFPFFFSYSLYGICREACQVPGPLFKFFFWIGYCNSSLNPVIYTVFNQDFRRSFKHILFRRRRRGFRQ
Assay: Radioligand binding experiment for α2C-adrenergic receptor ([3H]-raulwolscine)
Conditions: CHO cell membranes with human α2C receptor, [3H]raulwolscine 1 nM; read-out: pIC50 α2C (converted)
measured.endpoint: IC50 (nM)

compound="COc1cc2c(cc1NCCN)OCC1C2=NOC1CN1CCN(CC(C)=Cc2ccc(F)cc2)CC1 (stereo not shown)" unit=nM reported_result=6.31
compound="CC(=Cc1ccc(F)cc1)CN1CCN(CC2ON=C3c4ccc(N5CCN(Cc6ccccc6)CC5)cc4OCC32)CC1 (stereo not shown)" unit=nM reported_result=3.98
compound="CC(=Cc1ccc(F)cc1)CN1CCN(CC2ON=C3c4ccc(N(C)CCN(C)C(C)(C)C)cc4OCC32)CC1 (stereo not shown)" unit=nM reported_result=7.94
compound="CC(=Cc1ccc(F)cc1)CN1CCN(CC2ON=C3c4ccc(N(C)CCNCC5CC5)cc4OCC32)CC1 (stereo not shown)" unit=nM reported_result=3.16
compound="CC(=Cc1ccc(F)cc1)CN1CCN(CC2ON=C3c4ccc(NCC5CC5)cc4OCC32)CC1 (stereo not shown)" unit=nM reported_result=25.1
compound="C/C(=C\\c1ccc(F)cc1)CN1CCN(CC2ON=C3c4cc5c(cc4OCC32)NCCO5)CC1 (stereo not shown)" unit=nM reported_result=1.58
compound="COc1ccc(NC(=O)Nc2ccc3c(c2)OCC2C3=NOC2CN2CCN(C/C(C)=C/c3ccccc3)CC2)cc1OC (stereo not shown)" unit=nM reported_result=5.01
compound="CC(=Cc1ccccc1)CN1CCN(CC2ON=C3c4ccc(NC(=O)c5cccnc5)cc4OCC32)CC1 (stereo not shown)" unit=nM reported_result=1.26
compound="CCNC(=O)N1CCOc2cc3c(cc21)OCC1C3=NOC1CN1CCN(C/C(C)=C/c2ccccc2)CC1 (stereo not shown)" unit=nM reported_result=0.794
compound="CCNC(=O)Nc1ccc2c(c1)OCC1C2=NOC1CN1CCN(CC(C)=Cc2ccccc2)CC1 (stereo not shown)" unit=nM reported_result=1.26
compound="COc1cc2c(cc1N1CCC1=O)OCC1C2=NOC1CN1CCN(CC(C)=Cc2ccc(F)cc2)CC1 (stereo not shown)" unit=nM reported_result=10
compound="CC(=Cc1ccccc1)CN1CCN(CC2ON=C3c4ccc(NC(=O)Nc5ccccc5)cc4OCC32)CC1 (stereo not shown)" unit=nM reported_result=15.8
compound="CC(=Cc1ccc(F)cc1)CN1CCN(CC2ON=C3c4ccc(N(C)CCOC(=O)C5CCC5)cc4OCC32)CC1 (stereo not shown)" unit=nM reported_result=50.1
compound="CCOC(=O)CNC(=O)Nc1ccc2c(c1)OCC1C2=NOC1CN1CCN(CC(C)=Cc2ccccc2)CC1 (stereo not shown)" unit=nM reported_result=1.58
compound="CC(=Cc1ccccc1)CN1CCN(CC2ON=C3c4ccc(Nc5ccc(C)c(C)c5)cc4OCC32)CC1 (stereo not shown)" unit=nM reported_result=39.8
compound="CCC(C)Nc1ccc2c(c1)OCC1C2=NOC1CN1CCN(CC(C)=Cc2ccc(F)cc2)CC1 (stereo not shown)" unit=nM reported_result=50.1
compound="COc1cc2c(cc1N1CCOCC1)OCC1C2=NOC1CN1CCN(CC(C)=Cc2cccc(F)c2)CC1 (stereo not shown)" unit=nM reported_result=2.51
compound="CC(=Cc1ccc(F)cc1)CN1CCN(CC2ON=C3c4ccc(N(C)CCN)cc4OCC32)CC1 (stereo not shown)" unit=nM reported_result=2.51
compound="CC(=Cc1ccccc1)CN1CCN(CC2ON=C3c4ccc(Nc5ccc(F)cc5)cc4OCC32)CC1 (stereo not shown)" unit=nM reported_result=15.8
compound="CC(=Cc1ccccc1)CN1CCN(CC2ON=C3c4ccc(NC(=O)C5CC5)cc4OCC32)CC1 (stereo not shown)" unit=nM reported_result=1
compound="CC(=Cc1ccccc1)CN1CCN(CC2ON=C3c4ccc(N(C)CCO)cc4OCC32)CC1 (single isomer, unassigned) [Compound 34]" unit=nM reported_result=0.398
compound="COc1cc2c(cc1N1CCN(C)CC1)OCC1C2=NOC1CN1CCN(CC(C)=Cc2cccc(F)c2)CC1 (stereo not shown)" unit=nM reported_result=0.794
compound="CC(=Cc1ccccc1)CN1CCN(CC2ON=C3c4ccc(NC(=O)c5ccccc5)cc4OCC32)CC1 (stereo not shown)" unit=nM reported_result=3.16
compound="COc1cc2c(cc1N1CCC1)OCC1C2=NOC1CN1CCN(CC(C)=Cc2ccc(F)cc2)CC1 (stereo not shown)" unit=nM reported_result=15.8
compound="COc1cc2c(cc1NCC1(C)CC1)OCC1C2=NOC1CN1CCN(CC(C)=Cc2ccc(F)cc2)CC1 (stereo not shown)" unit=nM reported_result=200
compound="COc1cc2c(cc1N1CCOCC1)OCC1C2=NOC1CN1CCN(CC(C)=Cc2ccccc2)CC1 (stereo not shown)" unit=nM reported_result=1.26
compound="CC(=Cc1ccc(F)cc1)CN1CCN(CC2ON=C3c4ccc(N5CCC(C)C5=O)cc4OCC32)CC1 (stereo not shown)" unit=nM reported_result=7.94
compound="CC(=Cc1ccc(F)cc1)CN1CCN(CC2ON=C3c4ccc(N5CC=CCC5)cc4OCC32)CC1 (stereo not shown)" unit=nM reported_result=25.1
compound="CC(=Cc1ccccc1)CN1CCN(CC2ON=C3c4ccc(Nc5ccccc5C)cc4OCC32)CC1 (stereo not shown)" unit=nM reported_result=20
compound="COc1cc2c(cc1NC(C)=O)OCC1C2=NOC1CN1CCN(CC(C)=Cc2cccc(F)c2)CC1 (stereo not shown)" unit=nM reported_result=0.251
compound="CCC(C)C(=O)Nc1cc2c(cc1OC)C1=NOC(CN3CCN(CC(C)=Cc4ccc(F)cc4)CC3)C1CO2 (stereo not shown)" unit=nM reported_result=20
